Test System: T1, GIP receptor (UniProt P48546 22-466)
T1 sequence (looked up): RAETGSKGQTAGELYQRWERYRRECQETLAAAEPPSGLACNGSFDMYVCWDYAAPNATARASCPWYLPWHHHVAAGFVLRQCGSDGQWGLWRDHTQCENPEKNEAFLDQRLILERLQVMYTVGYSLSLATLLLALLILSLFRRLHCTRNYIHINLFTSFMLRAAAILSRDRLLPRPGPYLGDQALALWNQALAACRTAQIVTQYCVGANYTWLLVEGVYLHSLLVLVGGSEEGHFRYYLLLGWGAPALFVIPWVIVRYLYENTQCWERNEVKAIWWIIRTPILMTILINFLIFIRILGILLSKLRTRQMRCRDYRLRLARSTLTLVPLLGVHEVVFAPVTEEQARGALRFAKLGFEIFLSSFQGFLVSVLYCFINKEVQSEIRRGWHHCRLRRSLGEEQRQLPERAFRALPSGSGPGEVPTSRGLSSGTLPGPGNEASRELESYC
Procedure Text: cell-based or functional assay
Where no end group is shown, it is not given here.
Recorded EC50 by entry

Please review the following examples before continuing.
Binder	EC50
YSQGTFTSDYSKYLDEIHQKDFVNWLLAQ-NH2 [mt-109]	0.658 nM
YAEGTFISDYSIAMDKIHQQDFVNWLLAQKGKKNWLKHNITQ-NH2 [mt-99]	0.049 nM

Switching to the query record.
Q: So what's the measured EC50 for this one? YSQGTFTSDYSKYLDEIHQKEFVNWLLAQ-NH2 [mt-118]
Result: 0.736 nM

These measurements were taken from patent US20110166062A1.
